minimum inhibitory concentration: recorded values
system: Pasteurella multocida; assay: minimum inhibitory concentration (MIC); settings: isolate (source animal id): 157
ENDPOINT NAME: minimum inhibitory concentration

>>> result("NC[C@@H]1O[C@H](O[C@H]2[C@@H](O)[C@H](O[C@@H]3[C@@H](O)[C@H](N)C[C@H](N)[C@H]3O[C@H]3O[C@H](CN)[C@@H](O)[C@H](O)[C@H]3N)O[C@@H]2CO)[C@H](N)[C@@H](O)[C@@H]1O [Neomycin]")
"> 32 µg/mL"
>>> result("CS(=O)(=O)c1ccc([C@@H](O)[C@@H](CF)NC(=O)C(Cl)Cl)cc1 [Florfenicol]")
"8 µg/mL"
>>> result("CC[C@H]1OC(=O)C[C@@H](O)[C@H](C)[C@@H](O[C@@H]2O[C@H](C)[C@@H](O)[C@H](N(C)C)[C@H]2O)[C@@H](CCN2CCCCC2)C[C@@H](C)C(=O)/C=C/C(C)=C/[C@@H]1CN1CCCCC1 [Tildipirosin]")
"> 16 µg/mL"
>>> result("CCN1CCN(c2cc3c(cc2F)c(=O)c(C(=O)O)cn3C2CC2)CC1 [Enrofloxacin]")
"2 µg/mL"
>>> result("CO/N=C(\\C(=O)N[C@@H]1C(=O)N2C(C(=O)O)=C(CSC(=O)c3ccco3)CS[C@H]12)c1csc(N)n1 [Ceftiofur]")
"≤ 0.25 µg/mL"
>>> result("COc1cc(NS(=O)(=O)c2ccc(N)cc2)nc(OC)n1 [sulfadimethoxine]")
"> 256 µg/mL"
>>> result("CCCNC[C@]1(O)[C@H](C)O[C@@H](O[C@H]2[C@H](C)[C@@H](O[C@@H]3O[C@H](C)C[C@H](N(C)C)[C@H]3O)[C@](C)(O)C[C@@H](C)CN[C@H](C)[C@@H](O)[C@](C)(O)[C@@H](CC)OC(=O)[C@@H]2C)C[C@@]1(C)OC [Tulathromycin]")
"≤ 8 µg/mL"

* * *

test system: Histophilus somni; test: minimum inhibitory concentration (MIC); settings: isolate (source animal id): 151
ENDPOINT NAME: minimum inhibitory concentration

>>> result("CO/N=C(\\C(=O)N[C@@H]1C(=O)N2C(C(=O)O)=C(CSC(=O)c3ccco3)CS[C@H]12)c1csc(N)n1 [Ceftiofur]")
"≤ 0.25 µg/mL"
>>> result("CN(C)[C@@H]1C(O)=C(C(N)=O)C(=O)[C@@]2(O)C(O)=C3C(=O)c4c(O)cccc4[C@@](C)(O)[C@H]3C[C@@H]12 [Tetracycline]")
"> 8 µg/mL"
>>> result("NC[C@@H]1O[C@H](O[C@H]2[C@@H](O)[C@H](O[C@@H]3[C@@H](O)[C@H](N)C[C@H](N)[C@H]3O[C@H]3O[C@H](CN)[C@@H](O)[C@H](O)[C@H]3N)O[C@@H]2CO)[C@H](N)[C@@H](O)[C@@H]1O [Neomycin]")
"32 µg/mL"
>>> result("CNC(C)C1CCC(N)C(OC2C(N)CC(N)C(OC3OCC(C)(O)C(NC)C3O)C2O)O1 (centres undefined) [Gentamicin]")
"8 µg/mL"
>>> result("COc1cc(Cc2cnc(N)nc2N)cc(OC)c1OC.Cc1cc(NS(=O)(=O)c2ccc(N)cc2)no1 [trimethoprim-sulfamethoxazole]")
"> 2 µg/mL"
>>> result("CN1C[C@@H]2C[C@H]1CN2c1cc2c(cc1F)c(=O)c(C(=O)O)cn2C1CC1 [Danofloxacin]")
"≤ 0.12 µg/mL"
>>> result("CN[C@@H]1[C@H](O)[C@H](NC)[C@H]2O[C@@]3(O)C(=O)C[C@@H](C)O[C@H]3O[C@@H]2[C@H]1O [Spectinomycin]")
"> 64 µg/mL"
>>> result("COc1cc(NS(=O)(=O)c2ccc(N)cc2)nc(OC)n1 [sulfadimethoxine]")
"≤ 256 µg/mL"
>>> result("CC[C@H]1OC(=O)C[C@@H](O)[C@H](C)[C@@H](O[C@@H]2O[C@H](C)[C@@H](O)[C@H](N(C)C)[C@H]2O)[C@@H](CCN2CCCCC2)C[C@@H](C)C(=O)/C=C/C(C)=C/[C@@H]1CN1CCCCC1 [Tildipirosin]")
"2 µg/mL"

* * *

minimum inhibitory concentration: recorded values
test system: Histophilus somni; assay: minimum inhibitory concentration (MIC); settings: isolate (source animal id): 100
ENDPOINT NAME: minimum inhibitory concentration (µg/mL)

>>> measured_number("C=C[C@]1(C)C[C@@H](OC(=O)CSCCN(CC)CC)[C@]2(C)[C@H](C)CC[C@]3(CCC(=O)[C@H]32)[C@@H](C)[C@@H]1O")
2
>>> measured_number("CC[C@H]1OC(=O)C[C@@H](O)[C@H](C)[C@@H](O[C@@H]2O[C@H](C)[C@@H](O[C@H]3C[C@@](C)(O)[C@@H](O)[C@H](C)O3)[C@H](N(C)C)[C@H]2O)[C@@H](CC=O)C[C@@H](C)C(=O)/C=C/C(C)=C/[C@@H]1CO[C@@H]1O[C@H](C)[C@@H](O)[C@@H](OC)[C@H]1OC")
8
>>> measured_number("CNC(C)C1CCC(N)C(OC2C(N)CC(N)C(OC3OCC(C)(O)C(NC)C3O)C2O)O1 (stereo not drawn)")
16
>>> measured_number("CN[C@@H]1[C@H](O)[C@H](NC)[C@H]2O[C@@]3(O)C(=O)C[C@@H](C)O[C@H]3O[C@@H]2[C@H]1O")
16
>>> measured_number("CC[C@H]1OC(=O)C[C@@H](O)[C@H](C)[C@@H](O[C@@H]2O[C@H](C)[C@@H](O)[C@H](N(C)C)[C@H]2O)[C@@H](CCN2C[C@H](C)C[C@H](C)C2)C[C@@H](C)C(=O)/C=C/C(C)=C/[C@@H]1CO[C@@H]1O[C@H](C)[C@@H](O)[C@@H](OC)[C@H]1OC")
8

* * *

minimum inhibitory concentration: recorded values
system: Histophilus somni; test: minimum inhibitory concentration (MIC); conditions: isolate (source animal id): 250
ENDPOINT NAME: minimum inhibitory concentration

>>> result("COc1cc(Cc2cnc(N)nc2N)cc(OC)c1OC.Cc1cc(NS(=O)(=O)c2ccc(N)cc2)no1 [trimethoprim-sulfamethoxazole]")
"≤ 2 µg/mL"
>>> result("CN[C@@H]1[C@H](O)[C@H](NC)[C@H]2O[C@@]3(O)C(=O)C[C@@H](C)O[C@H]3O[C@@H]2[C@H]1O [Spectinomycin]")
"> 64 µg/mL"
>>> result("C=C[C@]1(C)C[C@@H](OC(=O)CSCCN(CC)CC)[C@]2(C)[C@H](C)CC[C@]3(CCC(=O)[C@H]32)[C@@H](C)[C@@H]1O [Tiamulin]")
"2 µg/mL"

* * *

system: Escherichia coli; experiment: minimum inhibitory concentration (MIC); conditions: isolate (source animal id): 144
ENDPOINT NAME: minimum inhibitory concentration

>>> result("NC[C@@H]1O[C@H](O[C@H]2[C@@H](O)[C@H](O[C@@H]3[C@@H](O)[C@H](N)C[C@H](N)[C@H]3O[C@H]3O[C@H](CN)[C@@H](O)[C@H](O)[C@H]3N)O[C@@H]2CO)[C@H](N)[C@@H](O)[C@@H]1O")
"≤ 4 µg/mL"
>>> result("CC1(C)S[C@@H]2[C@H](NC(=O)[C@H](N)c3ccccc3)C(=O)N2[C@H]1C(=O)O")
"> 16 µg/mL"
>>> result("CC[C@H]1OC(=O)C[C@@H](O)[C@H](C)[C@@H](O[C@@H]2O[C@H](C)[C@@H](O[C@H]3C[C@@](C)(O)[C@@H](O)[C@H](C)O3)[C@H](N(C)C)[C@H]2O)[C@@H](CC=O)C[C@@H](C)C(=O)/C=C/C(C)=C/[C@@H]1CO[C@@H]1O[C@H](C)[C@@H](O)[C@@H](OC)[C@H]1OC")
"> 32 µg/mL"
>>> result("CC[C@H]1OC(=O)C[C@@H](O)[C@H](C)[C@@H](O[C@@H]2O[C@H](C)[C@@H](O)[C@H](N(C)C)[C@H]2O)[C@@H](CCN2CCCCC2)C[C@@H](C)C(=O)/C=C/C(C)=C/[C@@H]1CN1CCCCC1")
"4 µg/mL"

* * *

system: Enterococcus spp.; experiment: minimum inhibitory concentration (MIC); settings: isolate (source animal id): 42
minimum inhibitory concentration: recorded values
ENDPOINT NAME: minimum inhibitory concentration (µg/mL)

>>> measured_number("CC1(C)S[C@@H]2[C@H](NC(=O)[C@H](N)c3ccccc3)C(=O)N2[C@H]1C(=O)O [Ampicillin]")
1
>>> measured_number("CC[C@H]1OC(=O)C[C@@H](O)[C@H](C)[C@@H](O[C@@H]2O[C@H](C)[C@@H](O)[C@H](N(C)C)[C@H]2O)[C@@H](CCN2CCCCC2)C[C@@H](C)C(=O)/C=C/C(C)=C/[C@@H]1CN1CCCCC1 [Tildipirosin]")
8
>>> measured_number("CNC(C)C1CCC(N)C(OC2C(N)CC(N)C(OC3OCC(C)(O)C(NC)C3O)C2O)O1 (configuration not stated) [Gentamicin]")
8
